So I've got a bunch of binders here, and I need their log10 Kd values.
System: T1, PTRAMP–CSS heterodimer (disulfide-linked PfPTRAMP 42–309 and PfCSS 20–290) (P. falciparum)
T1 chain 1: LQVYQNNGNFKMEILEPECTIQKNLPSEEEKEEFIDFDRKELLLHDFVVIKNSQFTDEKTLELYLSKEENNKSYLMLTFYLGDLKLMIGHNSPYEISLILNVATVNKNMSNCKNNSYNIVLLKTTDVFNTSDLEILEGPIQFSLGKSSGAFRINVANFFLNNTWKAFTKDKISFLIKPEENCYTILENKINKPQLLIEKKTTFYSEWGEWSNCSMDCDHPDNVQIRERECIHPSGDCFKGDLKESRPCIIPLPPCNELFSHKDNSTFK
T1 chain 2: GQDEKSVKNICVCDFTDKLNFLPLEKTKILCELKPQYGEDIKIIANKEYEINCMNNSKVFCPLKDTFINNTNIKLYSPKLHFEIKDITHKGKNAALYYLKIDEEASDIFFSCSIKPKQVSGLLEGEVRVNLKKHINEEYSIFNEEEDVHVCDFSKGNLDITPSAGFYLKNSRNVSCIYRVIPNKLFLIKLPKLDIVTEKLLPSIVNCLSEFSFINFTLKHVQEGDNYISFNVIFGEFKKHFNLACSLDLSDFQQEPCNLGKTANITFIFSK
Measurement notes: BLI
Please interpret these as log10 of Kd where Kd is in nM.

Solved entries (count: 2):
[[record]]
binder = "anti-PfCSS nanobody E12 (VHH) VHH: QVQLQESGGGLVQAGGSLRLSCVASTRTFGNYAMAWFRQAPGKEREFVTTISASGGNTGAAPSVKGRFAISRDNAKNTVYLQMNSLKPEDTAVYYCAAASAYYSNDPARYTYWGQGTQVTVSS"
recorded_result = 1.20

[[record]]
binder = "anti-PfPTRAMP nanobody H8 (VHH) VHH: QVQLQESGGGLVQPGGSLRLSCAASGFTFSSYWMYWVRQAPGKGLEWVSAINTGGGSTAYADSVKGRFTISRDNAKNTLYLQMNSLKSDDTAVYYCVKARGSSWSDRVFDYWGQGTQVTVSS"
recorded_result = 2.61


For each listed entry, give its log10 Kd.
1. anti-PfCSS nanobody D9 (VHH) VHH: QVQLQESGGGLVQAGGSLTLSCAASGRTFSRSAMGWFRQAPGKGREFVAAISSGDTSTYYMDSVKGRFTISRDSSKNTVYLQMNNLRPEDTAVYYCAADPKSYITTMISEYDIWGQGTQVTVSS
2. anti-PfCSS nanobody G5 (VHH) VHH: QVQLQESGGGLVQAGGSLRLSCVASGRTFSSYGMGWFRQAPGKEREFVSAISSDAASRHYANSVKGRFTISRDNAKNTVTLQMSSLTPEDTAVYYCAAVHAYYSNYDGHYDYWGQGTQVTVSS
3. anti-PfCSS nanobody F7 (VHH) VHH: QVQLQESGGGSVQVGDSLSLSCVASGRTFSTYALGWFRQAPGKEREFVAAASANGKVAPVTGSLRDRFSISRDNAKNTMYLQMNNLKPEDTAVYYCAAATGSEVFISTSPNVYDIWGQGTQVTVSS

1: 1.04; 2: 0.85; 3: 1.00
